# protein stability index annotations
test: protein stability index of a GFP-peptide fusion (yeast GPS) (PSI 1-4); higher = more stable; sorted into four equal gates, so the index is relative within each strain; details: pdr5∆

QEELKKRQELEEASQQQ [MED2]
3.2
DDGDDEDLLECLDRCKE [MTR3]
3.08
DFIGHNSNINTLTASPD [ASC1]
2.87
DEDDDQPMISPDNSIFG [SWI3]
3.35
MLLVDIIPSRMGEAQTG [REC8]
1.87

// query Which measured protein stability index value corresponds to RRSLKKQGRIKNATEEL [CSN12] ?
// result 3.56

// query Which measured protein stability index value corresponds to TPKLQTQLSYLISSSLS [YCS4] ?
// result 2.14

// query Which measured protein stability index value corresponds to IREGQNQKIPDNVIVIN [SIR3] ?
// result 3.12

// query Which measured protein stability index value corresponds to YVLRNVLRIPEEYLDAN [MTW1] ?
// result 2.33
